tested on: P. aeruginosa strain ATCC 17647; assay: Minimal Biofilm Eradicating Concentration (MBEC), Calgary Biofilm Device; assay type: cell-based, Pseudomonas aeruginosa; conditions: 24 h biofilm, 24 h treatment; minimum concentration removing >95% of biofilm biomass (crystal violet)
parameter measured: MBEC (µg/mL)
Provide only the numeric value, understood in µg/mL.

Inquiry: Dear colleague, I am looking for the recorded MBEC of the following molecule: GN147: Modified GN3, amino acid substitutions (R101D, R117H), SEQ ID NO: 5 (protein) MRTSQRGLSLIKSFEGLRLQAYQDSVGVWTIGYGTTRGVKAGMKISKDQAERMLLNDVQRFEPEVERLIKVPLNQDQWDALMSFTYNLGAANLESSTLRDLLNAGNYAAAAEQFPHWNKAGGQVLAGLTRRRAAERELFLGAA
Reply text: 0.25

Inquiry: For GN105: Native lysin, GenBank WP_016046696.1, SEQ ID NO: 25 (protein, listed as Pseudomonas aeruginosa) MAVVSEKTAGGRNVLAFLDMLAWSEGTSTIRGSDNGYNVVVGGGLFNGYADHPRLKVYLPRYKVYSTAAGRYQLLSRYWDAYRESLALKGGFTPSNQDLVALQQIKERRSLADIQAGRLADAVQKCSNIWASLPGAGYGQREHSLDDLTAHYLAAGGVLS then?
Reply text: 4
